These entries and their values trace back to ChEMBL document CHEMBL5729205.

pIC50, Rho-associated protein kinase 2 (Homo sapiens, UniProt O75116), per-entry values.
pIC50: −log10 of the molar value.
PARAMETER: pIC50

[
  {
    "MOLECULE": "C[C@@H](NC(=O)c1cc2ccc(-c3nccc(Nc4ccc5[nH]ncc5c4)n3)cc2[nH]1)c1ccc(C(F)(F)F)nc1",
    "pIC50": 7.05
  },
  {
    "MOLECULE": "COCn1c(C(=O)N2CC(F)(F)C2)cc2ccc(-c3ncnc(Nc4ccc(-c5cn[nH]c5)cc4)n3)cc21",
    "pIC50": 6.37
  },
  {
    "MOLECULE": "O=C(N1CCc2ccc(-c3nccc(Nc4ccc(-c5cn[nH]c5)cc4)n3)cc2C1)N1CC(F)(F)C1",
    "pIC50": 6.67
  },
  {
    "MOLECULE": "O=C(c1cc2ccc(-c3nccc(Nc4ccc5[nH]ncc5c4)n3)cc2[nH]1)N1CC2CNCC2C1 (stereo not given)",
    "pIC50": 6.39
  },
  {
    "MOLECULE": "COCn1c(C(=O)N2CC(F)(F)C2)cc2ccc(-c3ncc(F)c(Nc4ccc(-c5cn[nH]c5)cc4)n3)cc21",
    "pIC50": 6.59
  },
  {
    "MOLECULE": "N=C(N)N1CCC2(CC1)CCN(C(=O)c1cc3ccc(-c4nccc(Nc5ccc6[nH]ncc6c5)n4)cc3[nH]1)CC2",
    "pIC50": 6.62
  },
  {
    "MOLECULE": "CC(C)NC(=O)c1cc2ccc(-c3nc(Cc4ccccc4)cc(Nc4ccc5[nH]ncc5c4)n3)cc2[nH]1",
    "pIC50": 6.46
  },
  {
    "MOLECULE": "O=C(C1CCC(F)(F)CC1)N1CCc2ccc(-c3ncc(F)c(Nc4ccc(-c5cn[nH]c5)cc4)n3)cc2C1",
    "pIC50": 6.32
  },
  {
    "MOLECULE": "O=C(OC1CC(F)(F)C1)N1Cc2ccc(-c3ncc(F)c(Nc4ccc(-c5cn[nH]c5)cc4)n3)cc2C1",
    "pIC50": 7.16
  },
  {
    "MOLECULE": "O=C(C1CC(F)(F)C1)N1Cc2ccc(-c3nc4c(c(Nc5ccc(-c6cn[nH]c6)cc5)n3)CNC4)cc2C1",
    "pIC50": 8.00
  }
]

A: O=C(C1CC(F)(F)C1)N1CCc2cc(-c3nccc(Nc4ccc(-c5cn[nH]c5)cc4)n3)ccc2C1
B: O=C(OC1CC(F)(F)C1)N1Cc2ccc(-c3nccc(Nc4ccc5[nH]ncc5c4)n3)cc2C1
C: C#CC1CN(C(=O)c2cc3ccc(-c4nccc(Nc5ccc(-c6cn[nH]c6)cc5)n4)cc3n2C)C1
Please list the entries, largest pIC50 first. Sort the labels as requested; that list is your answer.
B, A, C

A: O=C(C1CCOCC1)N1Cc2ccc(-c3ncc(F)c(Nc4ccc(-c5cn[nH]c5)cc4)n3)cc2C1
B: CN1Cc2nc(-c3ccc4cc(C(=O)N5CC(F)(F)C5)n(C)c4c3)nc(Nc3ccc(-c4cn[nH]c4)cc3)c2C1
Could you tell me which of these two has the smaller pIC50 figure? First: A Second: B The response must carry the label of the picked entry.
A
(A: 6.79, B: 7.85)
